All figures here come from BigSolDB 2.1.

TEST CONDITIONS: in DMF, 308.15 K
QUANTITY NAME: solubility (mole fraction)
Answer with the value's number alone.

[Q] Annotate the molecule Cc1c(Br)cccc1C(=O)O with its measured solubility (mole fraction).
[A] 0.305

###

TEST CONDITIONS: in acetonitrile, 328.15 K
QUANTITY NAME: solubility (mole fraction)
Answer with the value's number alone.

[Q] Annotate the molecule Cc1c(Br)cccc1C(=O)O with its measured solubility (mole fraction).
[A] 0.0194

###

TEST CONDITIONS: in THF, 298.15 K
QUANTITY NAME: solubility (mole fraction)
Answer with the value's number alone.

[Q] Annotate the compound Cc1c(Br)cccc1C(=O)O with its measured solubility (mole fraction).
[A] 0.222

###

TEST CONDITIONS: in DMF, 318.15 K
QUANTITY NAME: solubility (mole fraction)

[Q] Annotate the compound Cc1c(Br)cccc1C(=O)O with its measured solubility (mole fraction).
[A] 0.424

###

TEST CONDITIONS: in ethyl acetate, 278.15 K
QUANTITY NAME: solubility (mole fraction)
Answer with the value's number alone.

[Q] Annotate the compound Cc1c(Br)cccc1C(=O)O with its measured solubility (mole fraction).
[A] 0.027

###

TEST CONDITIONS: in DMF, 288.15 K
QUANTITY NAME: solubility (mole fraction)
Answer with the value's number alone.

[Q] Annotate the molecule Cc1c(Br)cccc1C(=O)O with its measured solubility (mole fraction).
[A] 0.152

###

TEST CONDITIONS: in ethanol, 303.15 K
QUANTITY NAME: solubility (mole fraction)
Answer with the value's number alone.

[Q] Annotate the molecule Cc1c(Br)cccc1C(=O)O with its measured solubility (mole fraction).
[A] 0.0631

###

TEST CONDITIONS: in methanol, 308.15 K
QUANTITY NAME: solubility (mole fraction)
Answer with the value's number alone.

[Q] Annotate the compound Cc1c(Br)cccc1C(=O)O with its measured solubility (mole fraction).
[A] 0.0559

###

TEST CONDITIONS: in DMF, 298.15 K
QUANTITY NAME: solubility (mole fraction)
Answer with the value's number alone.

[Q] Annotate the molecule Cc1c(Br)cccc1C(=O)O with its measured solubility (mole fraction).
[A] 0.216

###

TEST CONDITIONS: in cyclohexane, 308.15 K
QUANTITY NAME: solubility (mole fraction)

[Q] Annotate the compound Cc1c(Br)cccc1C(=O)O with its measured solubility (mole fraction).
[A] 0.00197

###

TEST CONDITIONS: in THF, 313.15 K
QUANTITY NAME: solubility (mole fraction)
Answer with the value's number alone.

[Q] Annotate the molecule Cc1c(Br)cccc1C(=O)O with its measured solubility (mole fraction).
[A] 0.26

###

TEST CONDITIONS: in DMF, 323.15 K
QUANTITY NAME: solubility (mole fraction)
Answer with the value's number alone.

[Q] Annotate the molecule Cc1c(Br)cccc1C(=O)O with its measured solubility (mole fraction).
[A] 0.5

###

TEST CONDITIONS: in ethyl acetate, 288.15 K
QUANTITY NAME: solubility (mole fraction)
Answer with the value's number alone.

[Q] Annotate the compound Cc1c(Br)cccc1C(=O)O with its measured solubility (mole fraction).
[A] 0.0359

###

TEST CONDITIONS: in THF, 303.15 K
QUANTITY NAME: solubility (mole fraction)
Answer with the value's number alone.

[Q] Annotate the compound Cc1c(Br)cccc1C(=O)O with its measured solubility (mole fraction).
[A] 0.236
